Collected IC50 values appear next to each entry.
test system: IL-17A-induced G-CSF production in human normal keratinocyte (NHK); test: NHK assay: IL-17A-induced G-CSF production in normal human keratinocytes; assay type: cell-based; conditions: Homo sapiens, Keratinocyte, 24 h, IL-17A 5 ng/mL, average if tested more than once
assay readout: IC50

>>> measured_result("Cc1nonc1C(=O)N[C@H](c1nc2ccc([C@H](NC(=O)CC3CC(F)(F)C3)C3CC3)cc2[nH]1)C1CCC2(CC1)CC2 (some centres unmarked)")
"< 50 nM"
>>> measured_result("C[C@@H](NC(=O)CC(C)(C)C)c1ccc2[nH]c([C@@H](NC(=O)c3ccnn3C)C3CCC(F)(F)CC3)nc2c1")
"> 100 nM"
>>> measured_result("[2H]C([2H])([2H])n1nccc1C(=O)N[C@@H](COC(C)(C)C(F)(F)F)c1nc2cc([C@H](NC(=O)CC3CC(F)(F)C3)C3CC3)ccc2[nH]1")
"50 to 100 nM"
>>> measured_result("C[C@H](OCC(NC(=O)c1nonc1C1CC1)c1nc2ccc([C@H](NC(=O)CC3CC(F)(F)C3)C3CC3)cc2[nH]1)C(F)(F)F (single isomer, unassigned)")
"50 to 100 nM"
>>> measured_result("O=C(CC1CC(F)(F)C1)N[C@@H](c1ccc2[nH]c([C@@H](NC(=O)c3nonc3C3CC3)[C@H]3[C@@H]4CC(F)(F)C[C@@H]43)nc2c1)C1CC1")
"< 50 nM"

----------
test system: IL-17A-induced G-CSF production in human normal keratinocyte (NHK); experiment: NHK assay: IL-17A-induced G-CSF production in normal human keratinocytes; format: cell-based; settings: Homo sapiens, Keratinocyte, 24 h, IL-17A 5 ng/mL, average if tested more than once
pIC50: −log10 of the molar value.
This section presents compounds with their documented pIC50 values.
assay readout: pIC50

>>> measured_result("CC(CC(=O)N[C@@H](c1ccc2nc([C@H](CC(C)(C)C(F)(F)F)NC(=O)c3nonc3C3CC3)[nH]c2c1)C1CC1)C(F)(F)F (single isomer, unassigned)")
"> 7.30"
>>> measured_result("O=C(N[C@H](c1nc2cc([C@H](NC(=O)C(F)(F)CC3CC3)C3CC3)ccc2[nH]1)C1CCC(F)(F)CC1)c1nonc1C1CC1")
"> 7.30"
>>> measured_result("C[C@@H](NC(=O)CCC(F)(F)F)c1ccc2[nH]c([C@@H](NC(=O)c3cc(CCC(F)(F)F)on3)C3CCC(F)(F)CC3)nc2c1")
"< 7.00"
>>> measured_result("Cc1nonc1C(=O)N[C@@H](CC1(C(F)(F)F)CC1)c1nc2ccc([C@H](NC(=O)CC3CC(F)(F)C3)C3CC3)cc2[nH]1")
"< 7.00"
>>> measured_result("C[C@@H](NC(=O)CCC(F)(F)F)c1ccc2[nH]c(C(CC(C)(C)C(F)(F)F)NC(=O)c3cnn(CC4CC4)n3)nc2c1 (single isomer, unassigned)")
"< 7.00"

----------
tested on: IL-17A-induced G-CSF production in human normal keratinocyte (NHK); experiment: NHK assay: IL-17A-induced G-CSF production in normal human keratinocytes; format: cell-based; settings: Homo sapiens, Keratinocyte, 24 h, IL-17A 5 ng/mL, average if tested more than once
assay readout: IC50

>>> measured_result("O=C(CC1CC(F)(F)C1)N[C@@H](c1ccc2[nH]c([C@@H](NC(=O)c3nonc3OCC(F)F)C3CCC(F)(F)CC3)nc2c1)C1CC1")
"< 50 nM"
>>> measured_result("CC(C)c1ccsc1C(=O)N[C@H](c1nc2cc([C@@H](C)NC(=O)CCC(F)(F)F)ccc2[nH]1)C1CCC(F)(F)CC1")
"50 to 100 nM"
>>> measured_result("CC(C)n1nccc1C(=O)N[C@H](c1nc2cc([C@@H](NC(=O)CC3CC(F)(F)C3)C3CC3)ccc2[nH]1)C1CCC(F)(F)CC1")
"> 100 nM"
>>> measured_result("Cc1nonc1C(=O)N[C@@H](c1nc2ccc([C@H](NC(=O)CC3CC(F)(F)C3)C3CC3)cc2[nH]1)[C@@H]1CCCCO1 (relative stereo)")
"> 100 nM"
>>> measured_result("COCCn1ncc(C(=O)N[C@H](c2nc3cc([C@@H](C)NC(=O)CCC(F)(F)F)ccc3[nH]2)C2CCC(F)(F)CC2)n1")
"> 100 nM"
>>> measured_result("CCc1nonc1C(=O)N[C@@H](CC(C)(C)C(F)(F)F)c1nc2cc([C@H](NC(=O)CCC(F)(F)F)C3CC3)ccc2[nH]1 (relative stereo)")
"< 50 nM"
>>> measured_result("C[C@@H](NC(=O)CCC(F)(F)F)c1ccc2[nH]c([C@@H](NC(=O)[C@@H]3C[C@H]3C#N)C3CCC(F)(F)CC3)nc2c1 (relative stereo)")
"> 100 nM"
>>> measured_result("C[C@@H](NC(=O)CCC(F)(F)F)c1ccc2[nH]c([C@@H](NC(=O)c3cn(CC4CC(F)(F)C4(F)F)nn3)C3CCC(F)(F)CC3)nc2c1 (some centres unmarked)")
"> 100 nM"
>>> measured_result("C[C@@H](NC(=O)CCC(F)(F)F)c1ccc2[nH]c([C@@H](NC(=O)c3cnnn3CCC3CC3)C3CCC(F)(F)CC3)nc2c1")
"> 100 nM"
>>> measured_result("CCn1ncc(C(=O)N[C@H](c2nc3cc([C@@H](C)NC(=O)CCC(F)(F)F)ccc3[nH]2)C2CCC(F)(F)CC2)n1")
"> 100 nM"
>>> measured_result("C[C@@H](NC(=O)CCC(F)(F)F)c1ccc2[nH]c([C@@H](NC(=O)c3cn(CCC(F)(F)F)cn3)C3CCC(F)(F)CC3)nc2c1")
"> 100 nM"

----------
// reported IC50 per item
System: IL-17A-induced G-CSF production in human normal keratinocyte (NHK)
Assay: NHK assay: IL-17A-induced G-CSF production in normal human keratinocytes
Format: cell-based
Settings: Homo sapiens, Keratinocyte, 24 h, IL-17A 5 ng/mL, average if tested more than once
Description: IL-17A acts directly on keratinocytes through binding to dimeric receptor IL-17RA/RC and drives the production of a number of inflammatory mediators known to be elevated in psoriasis lesional tissue. IL-17A small molecule inhibitors that block the IL-17A to interact with IL-17R would inhibit the IL-17A signaling in its targeted cells such as keratinocytes. The compound functional activity is evaluated for its impact on IL-17A-induced G-CSF production in human normal keratinocyte (NHK). […]
assay readout: IC50

>>> measured_result("CC(C)n1nccc1C(=O)N[C@H](c1nc2ccc([C@H](NC(=O)CC3CC(F)(F)C3)C3CC3)cc2[nH]1)C1CCCCO1 (single isomer, unassigned)")
"> 100 nM"
>>> measured_result("CC(C)n1nccc1C(=O)NC(CO[C@H](C)C(F)(F)F)c1nc2ccc([C@H](NC(=O)CC3CC(F)(F)C3)C3CC3)cc2[nH]1 (single isomer, unassigned)")
"50 to 100 nM"
>>> measured_result("C[C@@H](NC(=O)CCC(F)(F)F)c1ccc2[nH]c([C@@H](NC(=O)C34CC(C3)C4)C3CCC(F)(F)CC3)nc2c1")
"> 100 nM"
>>> measured_result("Cc1nonc1C(=O)N[C@@H](CO[C@H](C)C(F)(F)F)c1nc2ccc([C@H](NC(=O)CC3CC(F)(F)C3)C3CC3)cc2[nH]1 (relative stereo)")
"> 100 nM"
>>> measured_result("Cc1c(C(=O)N[C@H](c2nc3ccc([C@@H](C)NC(=O)CCC(F)(F)F)cc3[nH]2)C2CCC(F)(F)CC2)cnn1CC(F)F")
"> 100 nM"
>>> measured_result("Cc1nonc1C(=O)N[C@H](c1nc2cc([C@H](NC(=O)CCC(F)(F)F)C3CC3)ccc2[nH]1)[C@@H]1CCCC(F)(F)C1")
"50 to 100 nM"
